pKd reference
- target: human soluble CD4 (sCD4) (human, UniProt P01730)
- test: SPR
pKd: −log10 of the molar value.
recorded metric: pKd

INSERT INTO results (binder, recorded_metric, test_result) VALUES
  ('ML28 (antibody, V domains shown) VH: QVQLQQSGPEVVKPGASVKMSCKASGYTFTSYVIHWVRQKPGQGLDWIGYINPYNDGTDYDEKFKGKATLTSDTSTSTAYMELSSLRSEDTAVYYCAREKDNYAVPGWFAYWGQGTLVTVSS VL: DIVMTQSPDSLAVSLGERVTMNCKSSQSLLYSTNQKNYLAWYQQKPGQSPKLLIYWASTRESGVPDRFSGSGSGTDFTLTISSVQAEDVAVYYCQQYYSYRTFGGGTKLEIK', 'pKd', 8.75),
  ('ML26 (antibody, V domains shown) VH: QVQLQQSGPEVVKPGASVKMSCKASGYTFTSYVIHWVRQKPGQGLDWIGYINPYNDGTDYDEKFKGKATLTSDTSTSTAYMELSSLRSEDTAVYYCARQAANYATGAWFAYWGQGTLVTVSS VL: DIVMTQSPDSLAVSLGERVTMNCKSSQSLLYSTNQKNYLAWYQQKPGQSPKLLIYWASTRESGVPDRFSGSGSGTDFTLTISSVQAEDVAVYYCQQYYSYRTFGGGTKLEIK', 'pKd', 8.38),
  ('ML11 (antibody, V domains shown) VH: QVQLQQSGPEVVKPGASVKMSCKASGYTFTSYVIHWVRQKPGQGLDWIGYINPYNDGTDYDEKFKGKATLTSDTSTSTAYMELSSLRSEDTAVYYCVREKDSFATGAWFAYWGQGTLVTVSS VL: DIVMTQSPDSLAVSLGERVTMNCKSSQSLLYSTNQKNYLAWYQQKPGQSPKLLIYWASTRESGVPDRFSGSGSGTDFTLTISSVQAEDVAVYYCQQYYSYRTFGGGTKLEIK', 'pKd', 8.17),
  ('M24 (CDR-H1 EQTLH) (antibody, V domains shown) VH: QVQLQQSGPEVVKPGASVKMSCKASGYTFTEQTLHWVRQKPGQGLDWIGYINPYNDGTDYDEKFKGKATLTSDTSTSTAYMELSSLRSEDTAVYYCAREKDNYATGAWFAYWGQGTLVTVSS VL: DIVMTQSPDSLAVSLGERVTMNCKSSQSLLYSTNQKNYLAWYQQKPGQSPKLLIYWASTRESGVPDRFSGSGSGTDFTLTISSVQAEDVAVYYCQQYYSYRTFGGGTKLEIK', 'pKd', 11.38),
  ('ML1 (CDR-H1 SRVLS) (antibody, V domains shown) VH: QVQLQQSGPEVVKPGASVKMSCKASGYTFTSRVLSWVRQKPGQGLDWIGYINPYNDGTDYDEKFKGKATLTSDTSTSTAYMELSSLRSEDTAVYYCAREKDNYATGAWFAYWGQGTLVTVSS VL: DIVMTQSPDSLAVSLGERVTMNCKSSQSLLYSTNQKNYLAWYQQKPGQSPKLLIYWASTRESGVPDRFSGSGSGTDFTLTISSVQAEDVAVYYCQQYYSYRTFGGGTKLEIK', 'pKd', 8.67),
  ('ML29 (antibody, V domains shown) VH: QVQLQQSGPEVVKPGASVKMSCKASGYTFTSYVIHWVRQKPGQGLDWIGYINPYNDGTDYDEKFKGKATLTSDTSTSTAYMELSSLRSEDTAVYYCAREKDSLTTGAWFAYWGQGTLVTVSS VL: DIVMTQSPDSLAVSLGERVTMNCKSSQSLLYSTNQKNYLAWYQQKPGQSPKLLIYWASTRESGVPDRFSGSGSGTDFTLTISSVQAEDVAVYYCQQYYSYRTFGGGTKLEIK', 'pKd', 8.32);
